Test system: Epidermal growth factor receptor (Homo sapiens), P00533 [T790M]
Sequence (P00533 whole entry T790M): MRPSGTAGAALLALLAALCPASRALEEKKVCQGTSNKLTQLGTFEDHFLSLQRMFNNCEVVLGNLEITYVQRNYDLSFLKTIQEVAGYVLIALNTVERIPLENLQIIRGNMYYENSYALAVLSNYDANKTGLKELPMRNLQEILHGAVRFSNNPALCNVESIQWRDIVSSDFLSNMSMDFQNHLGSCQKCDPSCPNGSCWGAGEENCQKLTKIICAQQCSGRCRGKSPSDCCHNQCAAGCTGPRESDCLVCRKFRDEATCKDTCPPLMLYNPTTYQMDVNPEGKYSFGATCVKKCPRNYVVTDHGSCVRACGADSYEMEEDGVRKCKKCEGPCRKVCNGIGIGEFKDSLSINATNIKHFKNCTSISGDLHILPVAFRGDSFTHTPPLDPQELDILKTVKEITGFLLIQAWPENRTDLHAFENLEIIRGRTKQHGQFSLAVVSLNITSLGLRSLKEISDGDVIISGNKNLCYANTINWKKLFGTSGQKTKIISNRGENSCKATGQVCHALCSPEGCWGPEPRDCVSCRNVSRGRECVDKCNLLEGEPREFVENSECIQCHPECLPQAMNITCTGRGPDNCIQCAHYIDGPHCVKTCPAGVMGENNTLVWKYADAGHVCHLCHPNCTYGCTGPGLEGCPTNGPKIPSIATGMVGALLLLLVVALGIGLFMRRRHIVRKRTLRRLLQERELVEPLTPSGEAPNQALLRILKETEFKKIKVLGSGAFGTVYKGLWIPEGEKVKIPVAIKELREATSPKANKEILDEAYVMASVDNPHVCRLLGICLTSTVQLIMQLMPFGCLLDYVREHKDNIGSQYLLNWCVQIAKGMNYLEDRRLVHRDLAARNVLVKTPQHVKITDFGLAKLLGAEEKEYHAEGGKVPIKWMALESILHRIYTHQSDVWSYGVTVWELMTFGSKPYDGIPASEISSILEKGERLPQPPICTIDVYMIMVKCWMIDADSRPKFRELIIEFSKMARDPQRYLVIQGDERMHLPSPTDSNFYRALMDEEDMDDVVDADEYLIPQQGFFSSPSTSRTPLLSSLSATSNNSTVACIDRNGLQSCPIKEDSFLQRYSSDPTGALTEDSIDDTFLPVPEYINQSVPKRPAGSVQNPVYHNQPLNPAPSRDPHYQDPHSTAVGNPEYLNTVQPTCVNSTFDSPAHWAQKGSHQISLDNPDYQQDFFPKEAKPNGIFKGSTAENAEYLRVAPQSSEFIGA
conditions: at 0.1 µM
Hi there, I'd appreciate the recorded inhibition for every entry that follows.
One number for each entry, in %.

Sample answers from the record:
1) COC(=O)Nc1nc2ccc(Oc3ccc(NC(=O)Nc4cc(C(F)(F)F)ccc4F)cc3)cc2s1 : 0.17
2) Fc1cccc(COc2ccc(Nc3ncncc3C#Cc3ccccc3)cc2Cl)c1 : 3.89
3) CN(c1ccc(NC(=O)NCCN2CCOCC2)cc1)c1ccnc(Nc2ccc(CS(C)(=O)=O)cc2)n1 : 2.04
4) CNC(=O)c1ncccc1Nc1nc(Nc2cc3c(cc2OC)CCCN3C(=O)CN(C)C)nc2[nH]ccc12 : 13.2
5) CS(=O)(=O)Nc1ccc(-c2ccc3c(NC(=O)C4CC4)n[nH]c3c2)cc1 : 2.21
6) CC1(C)CC(n2cnc(-c3ccc(F)cc3)c2-c2ccnc(N)n2)CC(C)(C)N1 : -0.77

Hey, can you go through the list below and give me inhibition for every item?
1. Cc1cc(O)cc(C)c1/C=C/c1cncc(C(=O)OC(C)(C)C)c1
2. CS(=O)(=O)CCNCc1ccc(-c2ccc3ncnc(Nc4ccc(OCc5ccccc5)cc4)c3c2)o1
3. COC(=O)Nc1nc2cc(Oc3ccc(NC(=O)Nc4ccccc4)cc3)ccc2[nH]1
4. CCOc1ccc2c(-c3ccnc(Nc4cc(OC)cc(C(F)(F)F)c4)n3)cnn2n1
5. NS(=O)(=O)c1cccc(N/C=C2\C(=O)Nc3ccccc32)c1
6. NS(=O)(=O)c1ccc(N/N=C2\C(=O)Nc3ccc(C(=O)NCc4ccncc4)cc32)cc1
7. CS(=O)(=O)Nc1ccc(-c2cc(-c3ccccc3)cc(C(N)=O)c2N)cc1
8. N#Cc1ccc2c(-c3ccnc(NC4CC4)n3)c(-c3ccc(F)cc3)nn2c1

Marked response:
1. 0.92
2. 4.15
3. -1.39
4. 0.36
5. 2.62
6. 2.35
7. -0.83
8. -0.38

For each listed entry, give its inhibition.
1. CN1CCC(n2cnc(-c3ccc(F)cc3)c2-c2ccnc(NCCO)n2)CC1
2. O=C(O[C@H]1CN[C@H](C#Cc2cc3ncnc(Nc4ccc(OCc5cccc(F)c5)c(Cl)c4)c3s2)C1)N1CCOCC1
3. O=C1Nc2ccccc2/C1=C1\CCc2cc(O)ccc21
4. N#Cc1cccc(Nc2ncc(-c3ccccc3)o2)c1
5. CCCNc1cccc(-n2ncc3c(N/N=C/c4ccncc4)ncnc32)c1

Marked response:
[3.52, 5.1, 1.76, 1.65, -0.43]

Exam item: Reported inhibition, compound Cc1cc(O)cc(C)c1/C=C/c1cncc(C(N)=O)c1 : ____
Marked response: 1.27

====

I'd appreciate it if you could supply inhibition values for the items below.
tested.on: Ephrin type-B receptor 4 (Homo sapiens)
Sequence (whole entry): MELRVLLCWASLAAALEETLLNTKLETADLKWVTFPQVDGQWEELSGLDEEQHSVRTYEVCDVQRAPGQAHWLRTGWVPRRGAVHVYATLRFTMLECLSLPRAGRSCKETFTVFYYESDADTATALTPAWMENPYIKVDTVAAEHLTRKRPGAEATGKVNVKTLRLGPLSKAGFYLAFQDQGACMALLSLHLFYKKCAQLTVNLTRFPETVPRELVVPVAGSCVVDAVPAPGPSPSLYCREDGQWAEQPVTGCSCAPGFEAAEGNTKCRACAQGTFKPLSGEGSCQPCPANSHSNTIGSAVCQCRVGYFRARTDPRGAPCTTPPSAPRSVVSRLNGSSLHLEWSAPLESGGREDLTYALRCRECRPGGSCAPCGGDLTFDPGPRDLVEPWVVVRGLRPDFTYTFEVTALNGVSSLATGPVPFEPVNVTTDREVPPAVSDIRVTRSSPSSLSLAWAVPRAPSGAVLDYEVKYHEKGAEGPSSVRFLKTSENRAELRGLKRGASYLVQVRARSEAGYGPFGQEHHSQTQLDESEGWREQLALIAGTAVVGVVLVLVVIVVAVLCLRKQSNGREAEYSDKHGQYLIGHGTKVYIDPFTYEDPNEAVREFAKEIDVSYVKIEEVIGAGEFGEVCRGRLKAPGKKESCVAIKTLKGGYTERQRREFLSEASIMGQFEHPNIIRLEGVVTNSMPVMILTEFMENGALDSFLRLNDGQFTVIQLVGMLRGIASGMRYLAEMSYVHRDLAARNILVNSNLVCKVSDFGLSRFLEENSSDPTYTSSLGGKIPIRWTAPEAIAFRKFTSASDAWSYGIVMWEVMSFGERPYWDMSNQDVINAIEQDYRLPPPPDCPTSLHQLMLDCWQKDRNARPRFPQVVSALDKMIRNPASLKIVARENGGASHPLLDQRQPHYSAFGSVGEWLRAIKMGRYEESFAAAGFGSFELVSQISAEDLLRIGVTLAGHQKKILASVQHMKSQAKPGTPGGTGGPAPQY
conditions: at 0.1 µM
One number for each entry, in %.

1) CCS(=O)(=O)c1ccc(OC)c(Nc2ncc(-c3cccc(C(C)=O)c3)o2)c1 : 1.8
2) Cc1cc(O)cc(C)c1/C=C/c1cncc(C(=O)OC(C)(C)C)c1 : 24.8

Batch request: inhibition per item, same order as input.
1. COc1cc(Nc2ncc(-c3ccccc3)o2)cc(OC)c1
2. COc1ccc2ncn(-c3cc(O[C@H](C)c4ccccc4C(F)(F)F)c(C(N)=O)s3)c2c1
3. COc1cc2c(cc1Nc1nc(Nc3cccc(F)c3C(N)=O)c3cc[nH]c3n1)N(C(=O)CN1CCN(C(C)C)CC1)CC2
4. COc1cccc(Nc2nccc(-c3cnn4ncccc34)n2)c1
5. CNC(=O)c1sc(-n2cnc3cc(OC)c(OC)cc32)cc1OCc1ccccc1C(F)(F)F
6. CCOc1ccc2c(-c3ccnc(Nc4cc(OC)cc(C(F)(F)F)c4)n3)cnn2n1
7. NS(=O)(=O)c1ccc(N/N=C2\C(=O)Nc3cccc(CCc4ccncc4)c32)cc1
8. CNC(=O)c1ncccc1Nc1nc(Nc2cc3c(cc2OC)CCCN3C(=O)CN(C)C)nc2[nH]ccc12

Marked response:
1. 1.28
2. -1.21
3. 1.3
4. 2.75
5. 0.98
6. 2.17
7. 1.21
8. 1.64

Exam item: I'd like to know its inhibition. The molecule in question is COc1cc(N2CCN(C(C)C)CC2)ccc1Nc1nc(Nc2cccc(F)c2C(=O)O)c2cc[nH]c2n1
Marked response: 2.82

====

What inhibition was measured for each of the following?
tested.on: Serine/threonine-protein kinase PAK 1 (Homo sapiens)
conditions: at 0.1 µM
Answers are plain numbers, in %.

1. O=C(O[C@H]1CN[C@H](C#Cc2cc3ncnc(Nc4ccc5c(cnn5Cc5ccccc5)c4)c3s2)C1)N1CCOCC1 : 2.28
2. CNC(=O)c1sc(-n2cnc3cc(OC)c(OC)cc32)cc1OCc1ccccc1C(F)(F)F : 2.95
3. CC1=C(C(=O)Nc2ccc3[nH]nc(C)c3c2)C(c2ccc(C(F)(F)F)cc2)CC(=O)N1 (centres undefined) : 4.1
4. O=C(O[C@H]1CN[C@H](C#Cc2cc3ncnc(Nc4ccc5c(ccn5Cc5cc(F)ccc5F)c4)c3s2)C1)N1CCOCC1 : 9.36
5. CC(C)c1ccc(-c2cc(-c3c[nH]nc3-c3ccccn3)ccn2)cc1 : 1.09

State recorded inhibition for all listed compounds.
1. c1cnn2ncc(-c3ccnc(NCCCN4CCOCC4)n3)c2c1
2. COc1cc2c(cc1Nc1nc(Nc3cccc(F)c3C(N)=O)c3cc[nH]c3n1)N(C(=O)CN1CCN(C(C)C)CC1)CC2
3. Cc1nnc(-c2cccc(-c3ccc(C(=O)NCC4CC4)cc3)c2)o1
4. CC1(C)CC(n2cnc(-c3ccc(F)cc3)c2-c2ccnc(N)n2)CC(C)(C)N1

Marked response:
1. 6.37
2. 5.25
3. 9.41
4. 0.1

====

Provide the reported inhibition of each item.
tested.on: Glycogen synthase kinase-3 alpha (Homo sapiens)
conditions: at 1 µM
Answers are plain numbers, in %.

1) CCN1CCC(C(=O)Nc2n[nH]c3nnc(-c4cccc(F)c4F)cc23)CC1 : 89.9
2) CN(C)CCNC(=O)Nc1ccc(N(C)c2ccnc(Nc3ccc(CS(C)(=O)=O)cc3)n2)cc1 : 4.32
3) CCn1c(-c2nonc2N)nc2cncc(C(=O)NCCNC)c21 : 49.7
4) CC(C)c1ccc(-c2cc(-c3c[nH]nc3-c3ccccn3)ccn2)cc1 : 2.95

Please supply inhibition for each of the following items, keeping them in order.
1. COc1cccc(-n2ncc3c(N/N=C/c4ccc(C(=O)NCCN(C)C)cc4)ncnc32)c1
2. CS(=O)(=O)CCNCc1ccc(-c2ccc3ncnc(Nc4ccc(OCc5cccc(C(F)(F)F)c5)cc4)c3c2)o1
3. NS(=O)(=O)c1ccc(N/N=C2\C(=O)Nc3cccc(CCc4ccncc4)c32)cc1
4. Cc1c2ccc(N(C)c3ccnc(Nc4cccc(S(N)(=O)=O)c4)n3)cc2nn1C
5. CC1=C(C(=O)Nc2ccc3[nH]ncc3c2)C(c2ccc(F)cc2)N=C(c2ccc(C(F)(F)F)nc2)N1 (stereo not given)
6. CCOc1ccc2c(-c3ccnc(Nc4cc(OC)cc(C(F)(F)F)c4)n3)cnn2n1
7. CN1CCC(n2cnc(-c3ccc(F)cc3)c2-c2ccnc(NCCO)n2)CC1
8. CCCNc1cccc(-n2ncc3c(N/N=C/c4ccncc4)ncnc32)c1

Marked response:
1: 82.7; 2: 1.39; 3: 68; 4: 6.37; 5: 4.37; 6: 30.3; 7: 5.09; 8: 71.8
